Reference for the values: ChEMBL document CHEMBL3585325

# EXPERIMENT SUMMARY: Plasma concentration in C57BL/6NCrlCrlj mouse at 10 mg/kg, po administered as single dose measured after 1 hr by LC-MS/MS analysis
# Format: ADME, organism-based
PROPERTY NAME: concentration at 1 h (nM)
Give bare numbers, in nM.

Prompt: Given the compound Cc1ncc(OC[C@@]2(c3cccc(F)c3)C[C@H]2C(=O)Nc2ccc(F)cn2)c(C)n1 , what is its reported concentration at 1 h?
Response: 633

---

# ASSAYED SYSTEM: CYP3A (Homo sapiens, UniProt P08684+P20815+P24462+Q9HB55)
# EXPERIMENT SUMMARY: Inhibition of CYP3A in human liver microsomes assessed as enzyme activity using midazolam as substrate incubated for 30 mins prior to substrate addition for 10 mins by LC-MS/MS analysis
# Type: ADME
# CONDITION: probe midazolam
PROPERTY NAME: IC50 at 30 min

Prompt: Given the compound Cc1ncc(OC[C@@]2(c3cccc(F)c3)C[C@H]2C(=O)Nc2ccc(F)cn2)c(C)n1 [LEMBOREXANT] , what is its reported IC50 at 30 min?
Response: > 20 µM

---

These compounds were tested on Cytochrome P450 2C19 (Homo sapiens, UniProt P33261); IC50 is the recorded read-out.
Sequence (P33261 whole entry): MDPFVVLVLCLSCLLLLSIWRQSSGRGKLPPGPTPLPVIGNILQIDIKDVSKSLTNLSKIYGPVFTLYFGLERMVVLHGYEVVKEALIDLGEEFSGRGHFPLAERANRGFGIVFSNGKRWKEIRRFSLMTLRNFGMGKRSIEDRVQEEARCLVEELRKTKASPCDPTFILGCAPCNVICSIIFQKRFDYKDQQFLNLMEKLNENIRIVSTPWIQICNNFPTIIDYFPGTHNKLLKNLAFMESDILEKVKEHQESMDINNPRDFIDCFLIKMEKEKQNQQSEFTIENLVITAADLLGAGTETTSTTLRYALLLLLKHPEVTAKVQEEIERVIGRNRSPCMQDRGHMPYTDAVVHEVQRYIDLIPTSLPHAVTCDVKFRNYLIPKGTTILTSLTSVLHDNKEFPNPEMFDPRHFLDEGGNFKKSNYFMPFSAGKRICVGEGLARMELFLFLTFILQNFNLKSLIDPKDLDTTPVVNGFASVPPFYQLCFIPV

>>> reading("Cc1ncc(OC[C@@]2(c3cccc(F)c3)C[C@H]2C(=O)Nc2ccc(F)cn2)c(C)n1")
"> 20 µM"

Field: next compound
Prompt: Given the compound COc1ccc(OC[C@@]2(c3ccccc3)C[C@H]2C(=O)Nc2ccc(C#N)cn2)cc1OC , what is its reported IC50?
Response: 8.6 µM

---

# EXPERIMENT SUMMARY: Tmax in C57BL/6NCrlCrlj mouse at 10 mg/kg, po by LC-MS/MS analysis
# Type: ADME, organism-based
# CONDITION: in vivo
PROPERTY NAME: Tmax (min)
Answers are plain numbers, in min.

Prompt: Given the compound Cc1ncc(OC[C@@]2(c3cccc(F)c3)C[C@H]2C(=O)Nc2ccc(F)cn2)c(C)n1 , what is its reported Tmax?
Response: 15

---

Provide the recorded activity at 10 min, 10 µM for the entries that follow.
# ASSAYED SYSTEM: CYP3A (Homo sapiens, UniProt P08684+P20815+P24462+Q9HB55)
# EXPERIMENT SUMMARY: Time dependent inhibition of CYP3A in human liver microsomes assessed as enzyme activity using midazolam as substrate at 10 uM incubated for 30 mins prior to substrate addition for 10 mins by LC-MS/MS analysis
# Type: ADME
# Parameters: scale not given: the % may be the effect or the level left
# CONDITION: probe midazolam, read-out: Activity
Numbers only, in %.

See these solved cases before continuing.
>>> reading("Cc1ccc(OCC2(c3ccccc3)CC2C(=O)Nc2ccc(C#N)cn2)c(C)n1 (racemic)")
34
>>> reading("Cc1ncc(OC[C@@]2(c3ccccc3)C[C@H]2C(=O)Nc2ccc(F)cn2)c(C)n1")
87
>>> reading("Cc1ncc(OC[C@@]2(c3ccccc3)C[C@H]2C(=O)Nc2ccncc2)c(C)n1")
110
>>> reading("Cc1ncc(OC[C@@]2(c3ccc(F)cc3)C[C@H]2C(=O)Nc2ccc(F)cn2)c(C)n1")
85
>>> reading("Cc1ncc(OC[C@@]2(c3cccc(F)c3)C[C@H]2C(=O)Nc2ccc(F)cn2)c(C)n1 [LEMBOREXANT]")
76
>>> reading("CCc1nc(C)ncc1OC[C@@]1(c2ccccc2)C[C@H]1C(=O)Nc1ccc(C#N)cn1")
91

Hello, I would appreciate it if you could give activity at 10 min, 10 µM for each entry below.
1. Cc1ncc(OC[C@@]2(c3ccc(F)c(F)c3)C[C@H]2C(=O)Nc2ccc(F)cn2)c(C)n1
2. Cc1cnc(OC[C@@]2(c3ccccc3)C[C@H]2C(=O)Nc2ccc(C#N)cn2)c(C)n1
3. COc1cc(NC(=O)[C@@H]2C[C@@]2(COc2cnc(C)nc2C)c2ccccc2)ncc1F

Response:
[75, 97, 86]

---

# EXPERIMENT SUMMARY: Aqueous solubility of the compound in Japanese Pharmacopoeia 1st fluid at pH 1.2 by DMSO solution precipitation method
# Assay type: physicochemical
PROPERTY NAME: solubility kinetic (µM)
Give bare numbers, in µM.

Prompt: Given the molecule COc1ccc(OC[C@@]2(c3ccccc3)C[C@H]2C(=O)Nc2ccc(C#N)cn2)cc1OC , what is its reported solubility kinetic?
Response: 25

---

# EXPERIMENT SUMMARY: Cmax in C57BL/6NCrlCrlj mouse at 30 mg/kg, po by LC-MS/MS analysis
# Type: ADME, organism-based
# Set-up: dose 30 mg/kg, route oral
# CONDITION: in vivo
PROPERTY NAME: Cmax (ng/mL)
Give bare numbers, in ng/mL.

Prompt: Given the molecule Cc1ncc(OC[C@@]2(c3cccc(F)c3)C[C@H]2C(=O)Nc2ccc(F)cn2)c(C)n1 , what is its reported Cmax?
Response: 961

---

# EXPERIMENT SUMMARY: Half life in C57BL/6NCrlCrlj mouse at 10 mg/kg, po by LC-MS/MS analysis
# Format: ADME, organism-based
# CONDITION: in vivo
PROPERTY NAME: half-life (h)
Answers are plain numbers, in h.

Prompt: Given the molecule Cc1ncc(OC[C@@]2(c3cccc(F)c3)C[C@H]2C(=O)Nc2ccc(F)cn2)c(C)n1 , what is its reported half-life?
Response: 2.2

---

# EXPERIMENT SUMMARY: Metabolic stability in human liver microsomes assessed as residual ratio at 0.1 uM after 15 mins by LC-MS analysis
# Format: ADME
# CONDITION: read-out: Stability
PROPERTY NAME: remaining at 0.25 h, 0.1 µM (%)
Numbers only, in %.

Prompt: Given the compound Cc1ncc(OC[C@@]2(c3cccc(F)c3)C[C@H]2C(=O)Nc2ccc(F)cn2)c(C)n1 [LEMBOREXANT] , what is its reported remaining at 0.25 h, 0.1 µM?
Response: 90

---

# EXPERIMENT SUMMARY: Half life in C57BL/6NCrlCrlj mouse at 30 mg/kg, po by LC-MS/MS analysis
# Assay type: ADME, organism-based
# CONDITION: in vivo
PROPERTY NAME: half-life (h)
One number for each entry, in h.

Prompt: Given the molecule Cc1ncc(OC[C@@]2(c3cccc(F)c3)C[C@H]2C(=O)Nc2ccc(F)cn2)c(C)n1 [LEMBOREXANT] , what is its reported half-life?
Response: 1.94

---

# EXPERIMENT SUMMARY: Volume of distribution at steady state in C57BL/6NCrlCrlj mouse at 1 mg/kg, iv by LC-MS/MS analysis
# Type: ADME, organism-based
# CONDITION: in vivo, read-out: Vdss
PROPERTY NAME: Vd (L/kg)
Numbers only, in L/kg.

Prompt: Given the molecule Cc1ncc(OC[C@@]2(c3cccc(F)c3)C[C@H]2C(=O)Nc2ccc(F)cn2)c(C)n1 , what is its reported Vd?
Response: 2.71

---

# EXPERIMENT SUMMARY: Half life in C57BL/6NCrlCrlj mouse at 1 mg/kg, iv by LC-MS/MS analysis
# Assay type: ADME, organism-based
# CONDITION: in vivo
PROPERTY NAME: half-life (h)
Give bare numbers, in h.

Prompt: Given the molecule Cc1ncc(OC[C@@]2(c3cccc(F)c3)C[C@H]2C(=O)Nc2ccc(F)cn2)c(C)n1 , what is its reported half-life?
Response: 2.16

---

Provide the recorded Ki for the entries that follow.
# ASSAYED SYSTEM: Orexin/Hypocretin receptor type 1 (Homo sapiens, UniProt O43613)
# Sequence (O43613 whole entry): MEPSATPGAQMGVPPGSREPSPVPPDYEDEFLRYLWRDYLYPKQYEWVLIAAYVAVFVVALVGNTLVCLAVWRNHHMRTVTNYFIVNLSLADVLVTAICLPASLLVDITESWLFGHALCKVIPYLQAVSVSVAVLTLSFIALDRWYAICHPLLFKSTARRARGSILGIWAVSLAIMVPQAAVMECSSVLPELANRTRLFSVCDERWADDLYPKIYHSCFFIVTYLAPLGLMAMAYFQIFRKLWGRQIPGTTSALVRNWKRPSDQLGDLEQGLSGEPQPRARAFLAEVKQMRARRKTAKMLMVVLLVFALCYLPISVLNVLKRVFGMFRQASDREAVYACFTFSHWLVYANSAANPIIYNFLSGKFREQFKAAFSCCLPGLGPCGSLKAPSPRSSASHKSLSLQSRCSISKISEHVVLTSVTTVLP
# EXPERIMENT SUMMARY: Binding affinity to human OX1R by radioligand displacement binding assay

See these solved cases before continuing.
>>> reading("Cc1cc(OCC2(c3ccccc3)CC2C(=O)Nc2ccc(C#N)cn2)cc(C)n1 (racemic)")
"> 2000 nM"
>>> reading("CCn1cc(OC[C@]2(c3ccccc3)C[C@@H]2C(=O)Nc2ccc(C#N)cn2)c(C)n1")
"> 2000 nM"

Prompt: Given the compound Cc1nn(C)cc1OCC1(c2ccccc2)CC1C(=O)Nc1ccc(C#N)cn1 (racemic) , what is its reported Ki?
Response: > 2000 nM

---

# ASSAYED SYSTEM: Orexin receptor type 2 (Homo sapiens, UniProt O43614)
# Sequence (O43614 whole entry): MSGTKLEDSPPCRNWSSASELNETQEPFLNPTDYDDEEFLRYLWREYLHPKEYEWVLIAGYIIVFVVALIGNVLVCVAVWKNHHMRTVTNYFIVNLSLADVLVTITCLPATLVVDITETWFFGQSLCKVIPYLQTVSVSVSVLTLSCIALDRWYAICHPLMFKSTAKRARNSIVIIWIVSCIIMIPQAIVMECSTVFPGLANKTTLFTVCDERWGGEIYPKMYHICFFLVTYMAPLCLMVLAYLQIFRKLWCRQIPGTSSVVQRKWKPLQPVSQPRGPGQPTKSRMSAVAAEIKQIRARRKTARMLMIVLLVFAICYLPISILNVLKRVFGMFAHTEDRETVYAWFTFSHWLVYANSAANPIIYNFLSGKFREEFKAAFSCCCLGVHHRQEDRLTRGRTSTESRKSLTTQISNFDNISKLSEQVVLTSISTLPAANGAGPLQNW
pKi: −log10 of the molar value.
Use 8 as the dividing line for pKi, with the line itself on the satisfied side and lower values as not satisfied.

The following molecules have reported results that may help.
>>> assigned_class("Cc1ccnc(NC(=O)[C@@H]2C[C@@]2(COc2cnc(C)nc2C)c2ccccc2)c1")
"not satisfied"
>>> assigned_class("Cc1ncc(OC[C@@]2(c3cc(F)cc(F)c3)C[C@H]2C(=O)Nc2ccc(F)cn2)c(C)n1")
"satisfied"
>>> assigned_class("Cc1ncc(OC[C@@]2(c3ccccc3)C[C@H]2C(=O)Nc2cccc(F)n2)c(C)n1")
"not satisfied"

Prompt: Assess whether reported pKi for Cc1ncc(OC[C@@]2(c3ccccc3)C[C@H]2C(=O)Nc2ccncc2)c(C)n1 sits at 8 or higher.
Response: not satisfied

Prompt: Assess whether reported pKi for Cc1ncc(OC[C@@]2(c3cccc(F)c3)C[C@H]2C(=O)Nc2cc(C)c(F)cn2)c(C)n1 sits at 8 or higher.
Response: satisfied

Prompt: Assess whether reported pKi for Cc1cc(OCC2(c3ccccc3)CC2C(=O)Nc2ccc(C#N)cn2)cc(C)n1 (racemic) sits at 8 or higher.
Response: not satisfied
